kon values for the binders below.
MEASUREMENT TARGET: T1, human IL13 (human, UniProt P35225 35-146, biotinylated in the SPR assays (sites not given))
T1 construct: Peprotech; also called hIL13; recombinant human IL13
T1 sequence (P35225 other isoform, or with tags, fused parts or gaps limits assumed): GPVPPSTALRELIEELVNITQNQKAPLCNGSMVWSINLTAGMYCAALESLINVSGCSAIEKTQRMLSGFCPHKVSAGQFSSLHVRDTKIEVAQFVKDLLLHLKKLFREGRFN
TEST NAME: SPR BIAcore, biotin-IL13 on SA chip, global fit
PARAMETER MEASURED: kon (M⁻¹ s⁻¹)

>>> assay_value("6D4 (designed binder, N-Cap-(AR)3-C-Cap) DLGKKLLEAARAGQDDEVRILMANGADVNAADDYGSTPLHLAARSGHLEIVEVLLKHGADVNANDFIGDTPLHLAAYNGHLEIVEVLLKNGADVNATDITGETPLHLAAERGHLEIVEVLLKNGADVNTQDKFGKTAFDISIDNGNEDLAEILQKLN")
"1.17e+06"
>>> assay_value("IL13 binding protein 6G9 (designed binder) DLGKKLLEAARAGQDDEVRILMANGADVNARDSYGSTPLHLAAREGHLEIVEVLLKYGADVNAKDMIGDTPLHLAAYRGHLEIVEVLLKNGADVNASDITGETPLHLAAQIGHLEIVEVLLKYGADVNAQDKFGKTAFDISIDNGNEDLAEILQKLN")
995000
>>> assay_value("7G11 (designed binder, ankyrin repeat protein) DLGKKLLEAARAGQDDEVRILMANGADVNATDEFDSTPLHLAARHGHLEIVEVLLKYGADVNAADFIGDTPLHLAAYRGHLEIVEVLLKCGVDVNADDHGDTPLHLAASMGHLEIVEVLLKNGADVNAQDKFGKTAFDISIDNGNEDLAEILQKLN")
"1.62e+06"
>>> assay_value("5B9 (designed binder, N-Cap-(AR)3-C-Cap) DLGKKLLEAARAGQDDEVRILMANGADVNATDVFGSTPLHLAARHGHLEIVEVLLKHGADVNATDFIGDTPLHLAAYHGHLEIVEVLLKHGADVNAKNGETPLHLAAYHGHPDIVEVLLKHGADVNAQDKFGKTAFDISIDNGNEDLAEILQKLN")
"1.06e+06"

Recorded values, source patent US20120277143A1.
